- Target entity: Phosphodiesterase 4 (Homo sapiens, UniProt P27815+Q08499+Q07343+Q08493)
- Procedure summary: Inhibition of cAMP hydrolysis by inhibiting phosphodiesterases (PDE4), isolated from tumor tissue of human large cell lung tumor xenograft LXFL-529, grown in nude mice.
- Type: protein assay
Metric name: IC50 (µM)

Consider the reported IC50 for these molecules:
INSERT INTO assay_data (smiles, target_entity, metric_name, val) VALUES
  ('CN(C)c1nc(N2CCNCC2)nc2nc(NCc3ccccc3)c(Cl)nc12', 'Phosphodiesterase 4 (Homo sapiens, UniProt P27815+Q08499+Q07343+Q08493)', 'IC50', 0.3),
  ('Clc1nc2c(N3CCCC3)nc(N3CCOCC3)nc2nc1NCc1ccccc1', 'Phosphodiesterase 4 (Homo sapiens, UniProt P27815+Q08499+Q07343+Q08493)', 'IC50', 2.5),
  ('Clc1nc2c(N3CCCC3)nc(N3CCNCC3)nc2nc1N1CCCC1', 'Phosphodiesterase 4 (Homo sapiens, UniProt P27815+Q08499+Q07343+Q08493)', 'IC50', 0.059),
  ('OCCNc1nc(N2CCCC2)c2nc(Cl)c(NCc3ccccc3)nc2n1', 'Phosphodiesterase 4 (Homo sapiens, UniProt P27815+Q08499+Q07343+Q08493)', 'IC50', 2.8),
  ('Clc1nc2c(N3CCCC3)nc(N3CCNCC3)nc2nc1NCc1ccccc1', 'Phosphodiesterase 4 (Homo sapiens, UniProt P27815+Q08499+Q07343+Q08493)', 'IC50', 0.016);

1: NCCNc1nc(N2CCCC2)c2nc(Cl)c(NCc3ccccc3)nc2n1
2: CN(C)c1nc2nc(N3CCNCC3)nc(N3CCCC3)c2nc1Cl
3: CN(C)c1nc(N2CCCC2)c2nc(Cl)c(NCc3ccccc3)nc2n1
4: Clc1nc2c(NCc3ccccc3)nc(N3CCNCC3)nc2nc1N1CCCC1
[in] // smallest IC50 at index 0, largest at the end Put the labels in the requested order and list them out.
[out] 2, 4, 3, 1

a: O=C1CN(c2nc(N3CCCC3)c3nc(Cl)c(NCc4ccccc4)nc3n2)CCN1
b: CN(C)c1nc2c(N3CCCC3)nc(Cl)nc2nc1NCc1ccccc1
c: CN(C)c1nc2nc(N3CCNCC3)nc(N(C)C)c2nc1Cl
d: c1ccc(CNc2cnc3c(N4CCCC4)nc(N4CCNCC4)nc3n2)cc1
[in] // smallest IC50 at index 0, largest at the end Put the labels in the requested order and list them out.
[out] d, b, c, a
(d: 0.36 µM, b: 0.65 µM, c: 1.2 µM, a: 4.2 µM)

a: CN1CCN(c2nc(N3CCCC3)c3nc(Cl)c(NCc4ccccc4)nc3n2)CC1
b: CC(=O)N1CCN(c2nc(N3CCCC3)c3nc(Cl)c(NCc4ccccc4)nc3n2)CC1
[in] Name the one with the greater IC50 value, either a or b as given. Please identify the chosen entry by its label.
[out] b
(b: 5.9 µM, a: 3.1 µM)
